target: T1, recombinant human CD4 (catalogue number: 514-CD/CF, manufactured by R&D Systems) (human, UniProt P01730 26-390)
T1 construct: Bought protein (R&D Systems); also called recombinant CD4
measurement.protocol: SPR, Biacore T100; antibody captured on anti-human IgG chip, recombinant human CD4 flowed; 1:1 binding model
Description: In order to kinetically analyze the binding activity of anti-CD4 chimeric antibodies KM4045 to KM4049, 6G5-1 and 6G5-P to recombinant human CD4, the binding activity was measured by surface plasmon resonance method (SPR). All of the following manipulations were carried out using a Biacore T100 (manufactured by GE Healthcare Bio-Sciences). […]
experimental.readout: Kd (nM)
Please respond with the number in nM and leave the unit unwritten.

Query: // fetch Kd given entry anti-CD4 chimeric antibody KM4048 (antibody, V domains shown, Variable regions of rat KM4068 joined to the '113F type' human IgG1/IgG3 heavy chain constant region (US2007/0148165) and a human kappa constant region; Expressed in FUT8 knockout CHO cells (0% fucose)) VH: QVQLKESGPGLVQPSQTLSLTCTVSGLSLTSNSVSWIRQPPGKGLEWMGIIWSNGDTDYNSAIKSRLSISRDTSKSQVFLKMNSLQTEDTAMYFCANPYYGYNFPFDYWGQGVMVTVSS VL: DIQMTQSPASLSASLEEIVTITCKASQGIDNYLSWYQQKPGKSPQLLIYDATSLADGVPSRFSGSRSGTQYSLKISRPQVDDSGIYYCLQSYSTPFTFGSGTKLEIK
Response: 0.651
